Where these numbers come from: patent US12581252B2

target: H1047R PIK3CA enzyme (Homo sapiens, UniProt P42336, H1047R); assay: ADP-Glo Biochemical PIK3CA Kinase Assay
Sequence (P42336 whole entry H1047R): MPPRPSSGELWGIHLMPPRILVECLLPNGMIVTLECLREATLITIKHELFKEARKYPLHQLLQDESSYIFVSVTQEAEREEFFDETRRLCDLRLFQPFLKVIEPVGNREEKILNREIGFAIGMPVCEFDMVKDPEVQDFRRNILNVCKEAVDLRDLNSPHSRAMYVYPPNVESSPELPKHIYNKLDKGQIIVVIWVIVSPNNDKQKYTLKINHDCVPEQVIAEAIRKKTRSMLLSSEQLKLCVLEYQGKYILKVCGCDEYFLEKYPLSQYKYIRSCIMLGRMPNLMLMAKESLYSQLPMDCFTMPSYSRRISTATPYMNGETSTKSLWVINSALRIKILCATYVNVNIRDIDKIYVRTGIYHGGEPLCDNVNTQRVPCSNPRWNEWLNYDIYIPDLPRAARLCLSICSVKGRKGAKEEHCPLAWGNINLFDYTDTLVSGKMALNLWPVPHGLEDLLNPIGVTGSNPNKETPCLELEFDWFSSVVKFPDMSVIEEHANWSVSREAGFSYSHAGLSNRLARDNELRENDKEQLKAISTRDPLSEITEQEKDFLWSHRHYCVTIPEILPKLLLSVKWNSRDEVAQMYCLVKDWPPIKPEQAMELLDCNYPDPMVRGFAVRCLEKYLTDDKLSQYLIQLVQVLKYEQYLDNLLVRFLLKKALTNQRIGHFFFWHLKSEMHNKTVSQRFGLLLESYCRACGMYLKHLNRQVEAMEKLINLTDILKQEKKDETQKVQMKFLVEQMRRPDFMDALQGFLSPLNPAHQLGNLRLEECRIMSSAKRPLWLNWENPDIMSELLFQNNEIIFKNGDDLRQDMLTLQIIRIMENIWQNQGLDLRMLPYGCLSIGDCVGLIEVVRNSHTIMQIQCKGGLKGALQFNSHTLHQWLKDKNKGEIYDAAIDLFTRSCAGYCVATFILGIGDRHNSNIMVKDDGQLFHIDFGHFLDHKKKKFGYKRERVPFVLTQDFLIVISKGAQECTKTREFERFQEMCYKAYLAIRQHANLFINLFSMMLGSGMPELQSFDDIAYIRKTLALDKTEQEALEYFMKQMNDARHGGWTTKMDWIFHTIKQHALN
Sequence (P27986 whole entry partner): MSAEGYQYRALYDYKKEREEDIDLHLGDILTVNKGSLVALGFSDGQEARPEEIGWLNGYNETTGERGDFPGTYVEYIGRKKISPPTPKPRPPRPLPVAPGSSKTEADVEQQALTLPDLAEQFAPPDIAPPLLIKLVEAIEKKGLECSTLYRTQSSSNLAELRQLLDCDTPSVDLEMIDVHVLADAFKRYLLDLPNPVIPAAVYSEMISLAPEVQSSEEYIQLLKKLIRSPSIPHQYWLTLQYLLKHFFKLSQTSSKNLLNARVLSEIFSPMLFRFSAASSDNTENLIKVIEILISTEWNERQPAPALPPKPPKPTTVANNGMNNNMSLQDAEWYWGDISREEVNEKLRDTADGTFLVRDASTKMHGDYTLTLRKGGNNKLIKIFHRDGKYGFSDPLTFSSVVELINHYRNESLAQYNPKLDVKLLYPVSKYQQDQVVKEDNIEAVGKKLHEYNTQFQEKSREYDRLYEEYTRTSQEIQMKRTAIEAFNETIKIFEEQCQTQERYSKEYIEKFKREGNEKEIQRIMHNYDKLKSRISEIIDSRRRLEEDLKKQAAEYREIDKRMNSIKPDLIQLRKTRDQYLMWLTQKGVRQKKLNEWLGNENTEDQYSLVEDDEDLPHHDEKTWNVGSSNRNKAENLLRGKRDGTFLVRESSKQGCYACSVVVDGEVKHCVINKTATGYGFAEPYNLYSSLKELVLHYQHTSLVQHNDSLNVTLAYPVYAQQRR
The molecules listed here are annotated with their IC50.

Cc1ccccc1[C@H]1NC(=O)c2cc(N)cc(NC(=O)c3nsc4ccccc34)c21 : 0.5 to 1 µM

(Q) Which measured IC50 value corresponds to O=C(Nc1cc(-c2ccc3nccn3n2)cc2c1[C@H](c1cc(F)ccc1Cl)NC2=O)c1cc(F)cc(C(F)(F)F)c1 ?
(A) ≤ 0.1 µM

(Q) One more molecule: O=C(Nc1cc(-c2cn[nH]c2)cc2c1C(c1cc(F)ccc1Cl)NC2=O)c1cc(F)cc(C(F)(F)F)c1 (stereo not shown)
(A) ≤ 0.1 µM

(Q) One more molecule: O=C(Nc1cccc2c1C(C1CCCC(O)C1)NC2=O)c1cc(F)cc(C(F)(F)F)c1 (mixture of isomers) [Compound I-2227]
(A) 10 to 100 µM

(Q) One more molecule: O=C1NC(c2cc(F)ccc2Cl)c2c(NC(=O)N3CCC(O)(C(F)(F)F)C3)cc(-c3ccc4ncnn4c3)cc21 (stereo not shown)
(A) 10 to 100 µM

(Q) One more molecule: O=C1NC(c2cc(F)ccc2Cl)c2c(NC(=O)C3CC4(CCC4)C3)cc(Br)cc21 (stereo not shown)
(A) 1 to 10 µM

(Q) One more molecule: O=C1NC(c2cc(F)ccc2Cl)c2c(NC(=O)N3CC4(CCC4)c4ccccc43)cc(Br)cc21 (stereo not shown)
(A) 0.1 to 0.5 µM

###

assay: cells; conditions: Homo sapiens, MCF-10A, read-out: MCF10A IC50
measuredAttribute: IC50

Record excerpt, results attached:
O=C(Nc1cc(-c2ccnc3ccccc23)cc2c1C(c1cc(F)ccc1Cl)NC2=O)c1cc(F)cc(C(F)(F)F)c1 (centres unmarked) : < 1000 nM
O=C(Nc1cc(Nc2nnco2)cc2c1C(c1cc(F)ccc1Cl)NC2=O)c1cc(F)cc(C(F)(F)F)c1 (centres unmarked) : < 1000 nM
Cc1ccccc1C1NC(=O)c2cccc(NC(=O)c3csc4ccccc34)c21 (centres unmarked) : 1000 to 5000 nM
O=C1NC(c2cc(F)ccc2C(F)F)c2c(NC(=O)N3CC(O)c4cc(F)ccc43)cc(Br)cc21 (centres unmarked) : 1000 to 5000 nM
CC(C)(O)Cn1cc(-c2cc(NC(=O)c3cc(F)cc(C(F)(F)F)c3)c3c(c2)C(=O)N[C@H]3c2cc(F)ccc2Cl)cn1 : < 1000 nM
Cc1ccccc1C1NC(=O)c2cc(CNC(=O)OC(C)(C)C)cc(NC(=O)c3csc4ccccc34)c21 (centres unmarked) : 1000 to 5000 nM
O=C(Nc1cc(-c2n[nH]c3ncccc23)cc2c1C(c1cc(F)ccc1Cl)NC2=O)c1cc(F)cc(C(F)(F)F)c1 (centres unmarked) : < 1000 nM
O=C(Nc1cc(CC2(O)CNC2)cc2c1C(c1cc(F)ccc1Cl)NC2=O)c1cc(F)cc(C(F)(F)F)c1 (centres unmarked) : 10000 to 36000 nM
Cn1cc(-c2cc(NC(=O)c3cc(F)cc(C(F)(F)F)c3)c3c(c2)C(=O)NC3c2cc(F)ccc2Cl)cn1 (centres unmarked) : < 1000 nM
CN(C)c1nc2cc(-c3cc(NC(=O)c4cc(F)cc(C(F)(F)F)c4)c4c(c3)C(=O)NC4c3cc(F)ccc3Cl)ccn2n1 (centres unmarked) : < 1000 nM

(Q) Which measured IC50 value corresponds to CC(C)(O)c1cc(NC(=O)c2cc(F)cc(C(F)(F)F)c2)c2c(c1)C(=O)N[C@H]2c1cc(F)ccc1C(F)F ?
(A) 1000 to 5000 nM

(Q) One more compound: O=C(Nc1cc(NC2=NC3(CC3)CO2)cc2c1C(c1cc(F)ccc1Cl)NC2=O)c1cc(F)cc(C(F)(F)F)c1 (centres unmarked)
(A) 1000 to 5000 nM

(Q) One more compound: O=C(Nc1cc(-n2cncn2)cc2c1C(c1cc(F)ccc1Cl)NC2=O)c1cc(F)cc(C(F)(F)F)c1 (centres unmarked)
(A) < 1000 nM

(Q) One more compound: Cn1ccc(Nc2cc(NC(=O)c3cc(F)cc(C(F)(F)F)c3)c3c(c2)C(=O)N[C@H]3c2cc(F)ccc2Cl)n1
(A) < 1000 nM

###

molecular target: H1047R PIK3CA enzyme (Homo sapiens, UniProt P42336, H1047R); assay: ADP-Glo Biochemical PIK3CA Kinase Assay
The compounds listed here are annotated with their IC50.

NC(=O)CC(=O)Nc1cc(-c2ccc3ncnn3c2)cc2c1C(c1cc(F)ccc1Cl)NC2=O (stereo not shown) : 10000 to 100000 nM

(Q) Short answer please: IC50, H1047R PIK3CA enzyme (Homo sapiens, UniProt P42336, H1047R), entry O=C(Nc1cc(-c2ccc(C(F)F)nc2)cc2c1[C@H](c1cc(F)ccc1Cl)NC2=O)c1cc(F)cc(C(F)(F)F)c1
(A) ≤ 100 nM

(Q) One more compound: CNC(=O)Cc1cc(NC(=O)c2cc(F)cc(C(F)(F)F)c2)c2c(c1)C(=O)NC2c1cc(F)ccc1Cl (stereo not shown)
(A) ≤ 100 nM

(Q) One more compound: Cc1ccccc1C1NC(=O)c2cc(N)cc(NC(=O)c3csc4ccccc34)c21 (stereo not shown)
(A) ≤ 100 nM

(Q) One more compound: N#Cc1cc2ncnn2cc1-c1cc(NC(=O)c2cc(F)cc(C(F)(F)F)c2)c2c(c1)C(=O)NC2c1cc(F)ccc1Cl (stereo not shown)
(A) ≤ 100 nM

(Q) One more compound: N#CC1CC(c2cc(NC(=O)c3cc(F)cc(C(F)(F)F)c3)c3c(c2)C(=O)NC3c2cc(F)ccc2Cl)C1 (stereo not shown)
(A) ≤ 100 nM

(Q) One more compound: Cc1ccc(C(=O)Nc2cc(Br)cc3c2C(c2cc(F)ccc2Cl)NC3=O)cc1 (stereo not shown)
(A) 10000 to 100000 nM

###

biological target: H1047R PIK3CA enzyme (Homo sapiens, UniProt P42336, H1047R); assay: ADP-Glo Biochemical PIK3CA Kinase Assay
The compounds listed here are annotated with their IC50.

Record excerpt, results attached:
O=C1N[C@H](c2cc(F)ccc2Cl)c2c(NC(=O)N3C[C@H](O)c4ccc(F)cc43)cccc21 (stereo in doubt) : 10000 to 100000 nM
Cc1ccccc1C1NC(=O)c2cccc(NC(=O)N3CC(C)(C)c4ccccc43)c21 (stereo not shown) : 1000 to 10000 nM
CS(=O)(=O)Cn1cc(-c2cc(NC(=O)c3cc(F)cc(C(F)(F)F)c3)c3c(c2)C(=O)NC3c2cc(F)ccc2Cl)cn1 (stereo not shown) : ≤ 100 nM

(Q) Which measured IC50 value corresponds to O=C(Nc1cc(Cc2ccc3c(c2)CCNC3=O)cc2c1[C@@H](c1cc(F)ccc1Cl)NC2=O)c1cc(F)cc(C(F)(F)F)c1 ?
(A) 500 to 1000 nM

###

target: H1047R PIK3CA enzyme (Homo sapiens, UniProt P42336, H1047R); test: ADP-Glo Biochemical PIK3CA Kinase Assay
measuredAttribute: IC50

Record excerpt, results attached:
O=C(Nc1cc(-c2cnc(C3CC3)nc2)cc2c1C(c1cc(F)ccc1Cl)NC2=O)c1cc(F)cc(C(F)(F)F)c1 (centres unmarked) [Compound I-822] : ≤ 0.1 µM
O=C(Nc1cc(OC[C@@H]2CCO2)cc2c1[C@@H](c1cc(F)ccc1Cl)NC2=O)c1cc(F)cc(C(F)(F)F)c1 (single isomer, unassigned) [Compound I-1519] : 10 to 100 µM
O=C(Nc1cccc2c1C([C@H]1CCCC[C@@H]1O)NC2=O)c1cc(F)cc(C(F)(F)F)c1 (single isomer, unassigned) [Compound I-1972] : 10 to 100 µM
Nc1cc(C(F)(F)F)cc(C(=O)Nc2cccc3c2C(c2cc(F)ccc2Cl)NC3=O)n1 (centres unmarked) [Compound I-726] : 1 to 10 µM
N#CCn1cc(-c2cc(NC(=O)c3cc(F)cc(C(F)(F)F)c3)c3c(c2)C(=O)NC3c2cc(F)ccc2Cl)cn1 (centres unmarked) [Compound I-1420] : ≤ 0.1 µM

(Q) Short answer please: IC50, H1047R PIK3CA enzyme (Homo sapiens, UniProt P42336, H1047R), entry O=C(Nc1cc(NC2CCC2(F)F)nc2c1C(c1cc(F)ccc1Cl)NC2=O)c1cc(F)cc(C(F)(F)F)c1 (centres unmarked) [Compound I-532]
(A) ≤ 0.1 µM

(Q) One more compound: O=C1NC(c2cc(F)ccc2Cl)c2c(Nc3nccc4c(C(F)(F)F)cc(F)cc34)cc(Br)cc21 (centres unmarked) [Compound I-978]
(A) ≤ 0.1 µM

(Q) One more compound: CC(=O)N1CCCC(C(=O)Nc2cc(-c3ccc4ncnn4c3)cc3c2C(c2cc(F)ccc2Cl)NC3=O)C1 (centres unmarked) [Compound I-1743]
(A) 10 to 100 µM

(Q) One more compound: O=C(Nc1cc(-c2cnc(-n3ccnc3)nc2)cc2c1C(c1cc(F)ccc1Cl)NC2=O)c1cc(F)cc(C(F)(F)F)c1 (centres unmarked) [Compound I-1482]
(A) ≤ 0.1 µM

(Q) One more compound: O=C(Nc1cc(Br)cc2c1C(c1cc(F)ccc1Cl)NC2=O)c1cc(Cl)ccc1OC(F)(F)F (centres unmarked) [Compound I-859]
(A) 1 to 10 µM

(Q) One more compound: Cc1nc2ncc(-c3cc(NC(=O)c4cc(F)cc(C(F)(F)F)c4)c4c(c3)C(=O)NC4c3cc(F)ccc3Cl)cn2n1 (centres unmarked) [Compound I-1124]
(A) ≤ 0.1 µM

(Q) One more compound: CC(C)(O)Cc1cc(F)cc(C(=O)Nc2cc(CC(C)(C)O)cc3c2C(c2cc(F)ccc2Cl)NC3=O)c1 (centres unmarked) [Compound I-696]
(A) 10 to 100 µM

(Q) One more compound: O=C(Nc1cc(Br)cc2c1[C@H](c1cccc(F)c1F)NC2=O)c1cc(F)cc(C(F)(F)F)c1 [Compound I-682]
(A) 0.1 to 0.5 µM

(Q) One more compound: NC1CN(C(=O)Nc2cc(Br)cc3c2C(c2cc(F)ccc2Cl)NC3=O)c2ccccc21 (centres unmarked) [Compound I-2042]
(A) 1 to 10 µM
